Consider compounds characterized by their pIC50 with HDAC6 (Homo sapiens).
Sequence (Q9UBN7 whole entry): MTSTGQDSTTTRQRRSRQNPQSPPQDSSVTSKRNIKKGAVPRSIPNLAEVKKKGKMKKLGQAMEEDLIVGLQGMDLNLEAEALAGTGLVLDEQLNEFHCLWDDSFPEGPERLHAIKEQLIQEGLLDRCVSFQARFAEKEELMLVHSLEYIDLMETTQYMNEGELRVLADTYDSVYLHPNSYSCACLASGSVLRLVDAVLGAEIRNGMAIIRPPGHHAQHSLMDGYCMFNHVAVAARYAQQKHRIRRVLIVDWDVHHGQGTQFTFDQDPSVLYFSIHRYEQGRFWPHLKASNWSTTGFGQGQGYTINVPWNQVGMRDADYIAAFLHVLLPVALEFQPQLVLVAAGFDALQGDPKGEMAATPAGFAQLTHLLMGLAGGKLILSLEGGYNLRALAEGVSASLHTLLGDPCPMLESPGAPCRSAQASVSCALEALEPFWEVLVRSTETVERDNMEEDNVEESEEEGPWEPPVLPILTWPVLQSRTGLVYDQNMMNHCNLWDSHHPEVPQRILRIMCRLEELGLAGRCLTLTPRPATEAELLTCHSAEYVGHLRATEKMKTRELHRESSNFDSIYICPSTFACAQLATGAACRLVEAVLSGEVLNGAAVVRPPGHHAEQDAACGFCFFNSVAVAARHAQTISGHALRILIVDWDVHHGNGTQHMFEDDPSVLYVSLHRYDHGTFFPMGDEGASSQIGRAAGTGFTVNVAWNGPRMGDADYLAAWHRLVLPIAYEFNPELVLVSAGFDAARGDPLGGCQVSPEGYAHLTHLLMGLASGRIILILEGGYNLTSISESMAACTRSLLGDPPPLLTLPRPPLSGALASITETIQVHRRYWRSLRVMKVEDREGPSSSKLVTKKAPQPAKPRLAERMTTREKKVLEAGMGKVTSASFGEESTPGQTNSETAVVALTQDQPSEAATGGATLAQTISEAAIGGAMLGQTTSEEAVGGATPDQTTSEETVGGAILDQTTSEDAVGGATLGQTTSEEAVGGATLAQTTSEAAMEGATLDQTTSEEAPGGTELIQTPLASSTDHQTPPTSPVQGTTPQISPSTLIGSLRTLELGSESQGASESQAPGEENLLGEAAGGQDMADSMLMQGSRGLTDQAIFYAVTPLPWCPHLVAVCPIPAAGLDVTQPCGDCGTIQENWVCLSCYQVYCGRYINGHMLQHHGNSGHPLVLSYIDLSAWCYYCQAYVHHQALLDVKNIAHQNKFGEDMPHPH
pIC50: −log10 of the molar value.
endpoint: pIC50

Data request: I am curious: what pIC50 value has been reported for COc1ccc(-c2cccc3nc(NCc4ccc(C(=O)NO)cc4)nn23)cc1 [Compound 16b] ?
Data returned: 8.06

Data request: Item under review: O=C(NO)c1ccc(CNc2nc3cccc(-c4ccc(Cl)c(Cl)c4)n3n2)cc1 [Compound 16k] . Reported pIC50?
Data returned: 8.21

Data request: Which measured pIC50 value corresponds to Cc1cccc(-c2cccc3nc(NCc4ccc(C(=O)NO)cc4)nn23)c1 [Compound 16f] ?
Data returned: 7.86

Data request: If you can, please state the reported pIC50 value of `O=C(NO)c1ccc(CNc2nc3cccc(-c4ccc5c(c4)OCO5)n3n2)cc1` .
Data returned: 8.37

a. COc1ccccc1-c1cccc2nc(NCc3ccc(C(=O)NO)cc3)nn12 [Compound 16d]
b. O=C(NO)c1ccc(CNc2nc3cccc(-c4cc(C(F)(F)F)cc(C(F)(F)F)c4)n3n2)cc1 [Compound 16m]
Data request: Smaller pIC50 value? Options are a and b Let me know the label of the one you choose.
Data returned: b
(b: 7.69, a: 7.99)

I. O=C(NO)c1ccc(CNc2nc3cccc(-c4cccc(Cl)c4)n3n2)cc1 [Compound 16h]
II. Cc1ccccc1-c1cccc2nc(NCc3ccc(C(=O)NO)cc3)nn12 [Compound 16g]
Data request: Please let me know which one, I or II , has a lower measured pIC50 value. Write down the label attached to your selection.
Data returned: II

###

Target: JAK3 (Homo sapiens, UniProt P52333)
Sequence (P52333 1-1124): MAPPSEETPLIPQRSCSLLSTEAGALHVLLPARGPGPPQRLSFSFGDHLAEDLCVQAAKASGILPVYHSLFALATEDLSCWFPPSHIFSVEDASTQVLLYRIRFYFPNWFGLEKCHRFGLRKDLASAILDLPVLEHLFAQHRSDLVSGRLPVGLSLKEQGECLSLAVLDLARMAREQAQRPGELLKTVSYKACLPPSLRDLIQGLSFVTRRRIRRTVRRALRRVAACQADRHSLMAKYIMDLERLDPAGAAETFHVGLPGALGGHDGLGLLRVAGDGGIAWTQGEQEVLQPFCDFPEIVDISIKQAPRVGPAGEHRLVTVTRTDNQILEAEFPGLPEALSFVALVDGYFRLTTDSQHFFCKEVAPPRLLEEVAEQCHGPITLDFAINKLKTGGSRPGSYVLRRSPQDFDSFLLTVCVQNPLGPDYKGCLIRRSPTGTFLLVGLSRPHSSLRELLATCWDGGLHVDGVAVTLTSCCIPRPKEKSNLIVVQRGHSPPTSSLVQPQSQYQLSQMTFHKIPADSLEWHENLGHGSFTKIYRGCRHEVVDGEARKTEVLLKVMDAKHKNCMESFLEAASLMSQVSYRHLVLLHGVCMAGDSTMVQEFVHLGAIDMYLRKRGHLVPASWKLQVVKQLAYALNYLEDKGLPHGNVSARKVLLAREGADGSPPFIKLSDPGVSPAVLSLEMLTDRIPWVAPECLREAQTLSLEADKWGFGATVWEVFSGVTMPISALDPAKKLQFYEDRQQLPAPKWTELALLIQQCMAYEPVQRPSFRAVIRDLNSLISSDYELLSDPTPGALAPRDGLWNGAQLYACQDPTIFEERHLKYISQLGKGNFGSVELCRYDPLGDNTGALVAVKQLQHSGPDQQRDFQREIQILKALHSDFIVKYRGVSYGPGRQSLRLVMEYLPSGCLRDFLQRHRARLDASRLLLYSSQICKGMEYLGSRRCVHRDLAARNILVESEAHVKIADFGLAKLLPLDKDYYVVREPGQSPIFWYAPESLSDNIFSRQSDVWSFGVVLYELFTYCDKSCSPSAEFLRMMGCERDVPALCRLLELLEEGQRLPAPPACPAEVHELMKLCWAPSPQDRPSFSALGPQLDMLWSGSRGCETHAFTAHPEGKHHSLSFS
endpoint: IC50

Data request: For `O=C(NO)c1ccc(CNc2nc3cccc(-c4ccc5c(c4)OCO5)n3n2)cc1` , what is its reported IC50?
Data returned: > 10 µM

Sourced from paper PMC11463018
